- testName: Compound stability in rat liver microsomes
- Type: in vitro ADME
- conditionContext: pH 7.4; rat liver microsomes 0.5 mg protein/mL, compound 5 μM, NADPH 1.0 mM, 37° C.; read-out: Rat T1/2
measuredQuantity: half-life at 5 μM

[[record]]
chemsmiles = "CC#Cc1cnc2ccc(-c3cnc(OC)c(NS(=O)(=O)c4ccc(F)cc4F)c3)nn12"
measuredvalue = "1.59 h"

[[record]]
chemsmiles = "COc1ncc(-c2ccc3ncc(C#CCO)n3c2)cc1NS(=O)(=O)c1ccc(F)cc1F"
measuredvalue = "2.01 h"

[[record]]
chemsmiles = "C#Cc1cnc2ccc(-c3cnc(OC)c(NS(=O)(=O)c4ccc(F)cc4F)c3)nn12"
measuredvalue = "1.25 h"


----------
- testName: Pharmacokinetic profiles in rats after intravenous and oral administration
- Format: in vivo
- conditionContext: rat, plasma, iv dosing 2 mg/kg
Reported AUC(0-t) by item:
measuredQuantity: AUC(0-t)

[[record]]
molecule = "C#Cc1cnc2ccc(-c3cnc(Cl)c(NS(=O)(=O)c4ccc(F)cc4)c3)nn12 [Ex. 7]"
measuredvalue = "48100 ng·h/mL"

[[record]]
molecule = "COc1ncc(-c2ccc3ncc(C#N)n3c2)cc1NS(=O)(=O)c1ccc(F)cc1F [Ex. 19]"
measuredvalue = "10100 ng·h/mL"

[[record]]
molecule = "COc1ncc(-c2ccc3ncc(C#CCO)n3n2)cc1NS(=O)(=O)c1ccc(F)cc1 [Ex. 2]"
measuredvalue = "20700 ng·h/mL"

[[record]]
molecule = "COc1ncc(-c2ccc3ncc(C#N)n3n2)cc1NS(=O)(=O)c1ccc(F)cc1F [Ex. 24]"
measuredvalue = "8400 ng·h/mL"

[[record]]
molecule = "C#Cc1cnc2ccc(-c3cnc(OC)c(NS(=O)(=O)c4ccc(F)cc4F)c3)nn12 [Ex. 8]"
measuredvalue = "16600 ng·h/mL"

[[record]]
molecule = "COc1ncc(-c2ccc3ncc(C#CCO)n3c2)cc1NS(=O)(=O)c1ccc(F)cc1F [Ex. 15]"
measuredvalue = "25600 ng·h/mL"

[[record]]
molecule = "COc1ncc(-c2ccc3ncc(C#CC(C)O)n3n2)cc1NS(=O)(=O)c1ccc(F)cc1F (centres unmarked) [Ex. 10]"
measuredvalue = "67000 ng·h/mL"

[[record]]
molecule = "COc1ncc(-c2ccc3ncc(C#CC(C)O)n3n2)cc1NS(=O)(=O)c1ccc(F)cc1 (centres unmarked) [Ex. 3]"
measuredvalue = "29000 ng·h/mL"


----------
- testName: Compound stability in rat liver microsomes
- Type: in vitro ADME
- conditionContext: pH 7.4; rat liver microsomes; in vivo CLint extrapolated
Each entry below carries its recorded CLint scaled at 5 μM.
measuredQuantity: CLint scaled at 5 μM (mL/min/kg)

[[record]]
compound = "C#Cc1cnc2ccc(-c3cnc(OC)c(NS(=O)(=O)c4ccc(F)cc4F)c3)nn12 [Ex. 8]"
measuredquantity = "CLint scaled at 5 μM"
measuredvalue = 33.2

[[record]]
compound = "CC#Cc1cnc2ccc(-c3cnc(OC)c(NS(=O)(=O)c4ccc(F)cc4F)c3)nn12 [Ex. 13]"
measuredquantity = "CLint scaled at 5 μM"
measuredvalue = 26.1

[[record]]
compound = "COc1ncc(-c2ccc3ncc(C#CC(C)O)n3n2)cc1NS(=O)(=O)c1ccc(F)cc1F (stereo not shown) [Ex. 10]"
measuredquantity = "CLint scaled at 5 μM"
measuredvalue = 8.89

[[record]]
compound = "COc1ncc(-c2ccc3ncc(C#CC(C)O)n3n2)cc1NS(=O)(=O)c1ccc(F)cc1 (stereo not shown) [Ex. 3]"
measuredquantity = "CLint scaled at 5 μM"
measuredvalue = 49.1

